Assay target: VLA-4 (α4β1 integrin) (Homo sapiens, UniProt P05556+P13612)
Sequence (P13612 34-1032): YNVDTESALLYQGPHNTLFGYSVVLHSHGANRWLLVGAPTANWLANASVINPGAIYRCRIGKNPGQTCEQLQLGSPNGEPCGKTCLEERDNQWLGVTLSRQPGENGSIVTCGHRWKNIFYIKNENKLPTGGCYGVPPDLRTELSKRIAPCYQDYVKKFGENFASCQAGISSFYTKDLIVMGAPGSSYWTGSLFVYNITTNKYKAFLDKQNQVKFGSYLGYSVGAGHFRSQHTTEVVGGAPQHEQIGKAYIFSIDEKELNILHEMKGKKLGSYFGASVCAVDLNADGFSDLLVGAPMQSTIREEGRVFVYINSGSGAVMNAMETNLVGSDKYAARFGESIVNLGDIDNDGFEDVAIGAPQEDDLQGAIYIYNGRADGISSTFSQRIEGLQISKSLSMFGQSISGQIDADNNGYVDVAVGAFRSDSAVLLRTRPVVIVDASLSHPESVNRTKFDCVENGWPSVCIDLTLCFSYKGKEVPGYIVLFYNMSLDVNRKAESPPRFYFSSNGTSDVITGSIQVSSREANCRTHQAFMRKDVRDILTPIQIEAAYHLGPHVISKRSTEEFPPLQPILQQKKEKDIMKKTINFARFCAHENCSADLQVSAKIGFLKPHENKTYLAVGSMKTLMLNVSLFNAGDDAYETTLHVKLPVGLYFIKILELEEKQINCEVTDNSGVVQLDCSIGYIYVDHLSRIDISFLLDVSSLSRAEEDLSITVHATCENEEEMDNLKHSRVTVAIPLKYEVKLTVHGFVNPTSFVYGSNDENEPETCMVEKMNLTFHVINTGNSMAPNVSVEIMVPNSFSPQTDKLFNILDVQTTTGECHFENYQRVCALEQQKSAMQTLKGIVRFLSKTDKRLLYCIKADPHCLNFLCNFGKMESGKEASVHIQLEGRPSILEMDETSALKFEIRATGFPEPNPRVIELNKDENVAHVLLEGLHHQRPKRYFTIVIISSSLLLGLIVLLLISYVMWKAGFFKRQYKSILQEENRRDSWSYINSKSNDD
Sequence (P05556 21-798): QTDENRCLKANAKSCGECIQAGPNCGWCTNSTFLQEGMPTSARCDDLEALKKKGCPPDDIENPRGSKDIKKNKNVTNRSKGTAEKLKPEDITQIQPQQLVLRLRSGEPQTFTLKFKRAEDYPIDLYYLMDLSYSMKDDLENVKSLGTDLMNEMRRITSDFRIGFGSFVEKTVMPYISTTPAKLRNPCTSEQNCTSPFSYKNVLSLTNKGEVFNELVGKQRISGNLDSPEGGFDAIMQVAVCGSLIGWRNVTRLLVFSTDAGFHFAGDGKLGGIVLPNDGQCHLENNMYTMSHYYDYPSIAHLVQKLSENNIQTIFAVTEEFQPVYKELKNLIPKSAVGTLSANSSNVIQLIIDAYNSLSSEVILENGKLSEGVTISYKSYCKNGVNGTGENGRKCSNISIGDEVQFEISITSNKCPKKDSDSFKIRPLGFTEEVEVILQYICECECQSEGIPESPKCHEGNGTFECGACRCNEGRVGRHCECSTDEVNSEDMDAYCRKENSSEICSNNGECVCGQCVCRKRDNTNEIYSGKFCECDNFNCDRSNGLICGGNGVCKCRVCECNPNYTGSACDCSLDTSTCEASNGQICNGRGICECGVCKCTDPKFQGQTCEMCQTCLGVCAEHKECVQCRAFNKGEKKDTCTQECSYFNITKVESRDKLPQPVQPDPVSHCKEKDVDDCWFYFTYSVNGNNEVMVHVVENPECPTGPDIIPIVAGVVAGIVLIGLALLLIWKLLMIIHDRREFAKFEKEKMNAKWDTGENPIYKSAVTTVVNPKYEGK
Assay method text: cell-based
Format: cell-based
Test settings: table 14; Ramos cells binding to immobilized VCAM-1; read-out: Ramos IC50
pIC50: −log10 of the molar value.
Outcome measure: pIC50

A selection of reference data follows.
Lookup: pIC50 lookup needed for Cc1cc(C[C@H](NC(=O)c2c(C)cccc2Cl)C(=O)O)ccc1NC(=O)c1cccc([N+](=O)[O-])c1 [Example 122] , thanks.
Found: 6.37

Lookup: For the compound Cc1cc(C[C@H](NC(=O)c2c(C)cccc2Cl)C(=O)O)ccc1NC(=O)CCc1cccc(O)c1 [Example 120] , what pIC50 is on record?
Found: 6.36

Lookup: Record request: pIC50 value, item Cc1cc(C[C@H](NC(=O)c2c(C)cccc2Cl)C(=O)O)ccc1NC(=O)c1c(Cl)cccc1Cl [Example 123]
Found: 6.50

Lookup: Given the entry O=C(N[C@@H](Cc1ccc(NC(=O)c2c(Cl)cccc2Cl)cc1)C(=O)O)c1ccc(Br)cc1Cl [Example 22] , report its measured pIC50.
Found: 8.88

Lookup: For the compound shown here, Cc1cccc(C(=O)N[C@@H](Cc2ccc(NC(=O)c3c(Cl)cccc3Cl)cc2)C(=O)O)c1Cl [Example 21] , give the reported pIC50.
Found: 8.90

1: CSc1ccccc1C(=O)N[C@@H](Cc1ccc(NC(=O)c2c(Cl)cccc2Cl)cc1)C(=O)O [Example 25]
2: O=C(Nc1ccc(C[C@H](NC(=O)c2cccc3ccccc23)C(=O)O)cc1)c1c(Cl)cccc1Cl [Example 15]
Lookup: Among 1 and 2 , which shows a numerically higher pIC50 result? I would appreciate it if you answered with the label of your choice.
Found: 2
